# Test system: CAMK2A
# protocol conditions: concentration: 1 μM, replicates: in singlicate; n = 1;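 note: KINOMEscan kinase panel screen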
Consider the following compounds; for each one, report its %Inh.
Response body: numeric value in %, unit text excluded.

Request: Could you share what %Inh was measured for COc1ccc(CNC(=O)NC2CCN(c3ccnc(Nc4ccc(OC)cc4)n3)C2)cc1 (stereo not shown) [GSK1379727] , tested on CAMK2A?
Response: 0

Request: Could you share what %Inh was measured for c1ccc(-c2cc(-c3c[nH]nc3-c3ccccn3)ccn2)cc1 [GW576604] , tested on CAMK2A?
Response: 0

Request: Could you share what %Inh was measured for c1ccc(-c2n[nH]cc2-c2ccnc3ccccc23)nc1 [GW271431] , tested on CAMK2A?
Response: 0

Request: Could you share what %Inh was measured for Nc1nc(-c2ccc3c(N)n[nH]c3c2)cc(N2CCCC2)n1 [GSK2227430] , tested on CAMK2A?
Response: 0

Request: Could you share what %Inh was measured for O=C(NCCCN1CCOCC1)c1cccc(Nc2nccc(Nc3ccc(Oc4ccccc4)cc3)n2)c1 [GW663929] , tested on CAMK2A?
Response: 3

Request: Could you share what %Inh was measured for CN(C(=O)c1ccc(-c2cc(-c3c[nH]nc3-c3ccccn3)ccn2)cc1)C1CCOCC1 [GW810083] , tested on CAMK2A?
Response: 0

Request: Could you share what %Inh was measured for COc1cc2ncn(-c3cc(OCc4sccc4Cl)c(C(N)=O)s3)c2cc1OC [GSK448459] , tested on CAMK2A?
Response: 0

====

# Test system: TSSK3
# protocol conditions: concentration: 1 μM, replicates: in singlicate; n = 1
Hi! Just check whether %Inh is below 6%. Below gives Satisfied, equal or above gives Not satisfied.

Request: Consider the molecule Cc1c2ccc(N(C)c3ccnc(Nc4cccc(S(N)(=O)=O)c4)n3)cc2nn1Cc1ccccc1.Cl.Cl [GW787226] . Is its %Inh strictly less than 6%?
Response: Satisfied

Request: Consider the molecule O=C(NCCNc1ccnc(Nc2ccc(F)cc2)n1)c1cc2ccccc2s1 [GSK1379874] . Is its %Inh strictly less than 6%?
Response: Not satisfied

Request: Consider the molecule CCc1ccnc(/C=C/c2n[nH]c3cc(Sc4ccccc4C(=O)NC)ccc23)c1 . Is its %Inh strictly less than 6%?
Response: Satisfied

Request: Consider the molecule O=C(NCCCN1CCOCC1)c1cccc(Nc2nccc(Nc3ccc(Oc4ccccc4)cc3)n2)c1 [GW663929] . Is its %Inh strictly less than 6%?
Response: Not satisfied

Request: Consider the molecule O=c1cc(N2CCOCC2)nc2n(Cc3cccc(C(F)(F)F)c3)ccn12 [GSK2297543] . Is its %Inh strictly less than 6%?
Response: Not satisfied

Request: Consider the molecule Fc1ccc(-c2ncn(CCCN3CCOCC3)c2-c2cccnc2)cc1 [SB-211743] . Is its %Inh strictly less than 6%?
Response: Satisfied

Request: Consider the molecule NCC(NC(=O)c1cc(-c2cn[nH]c2)c(-c2ccnc3[nH]ccc23)s1)c1ccccc1.O=C(O)C(F)(F)F.O=C(O)C(F)(F)F (stereo not drawn) [GSK1325775] . Is its %Inh strictly less than 6%?
Response: Not satisfied

Request: Consider the molecule COc1cc2c(cc1OC[C@@H](O)CO)ncc1c3ccc(C#N)cc3[nH]c21 . Is its %Inh strictly less than 6%?
Response: Satisfied

Source of measurements: paper PMC5540273
